- protocol: Quantitative High-Throughput drug screen in 47 multiple myeloma cell lines against the NCATS MIPE library collection: ARD_JJKsccE7 cell viability assay (AID 1918929; further: potency means the concentration at half of the fitted maximal effect)
- condition-details: ARD myeloma cell line viability, CellTiter-Glo, 48 h; series mostly up to 45.8 µM
Results filed as inconclusive are left out. Active and inactive are the calls of the source. The call rests on the fitted dose curve; in most records, active means well fitted cell-killing curve with a large enough effect; inconclusive means small, poorly fitted or top-dose-only effect, or effect the other way; inactive means no such curve, though single readings can be large or run the other way.
quantity-name: Potency

molecular-string | quantity-name | reading
CC[C@@]1(O)C(=O)OCc2c1cc1n(c2=O)Cc2cc3cc(O)ccc3nc2-1 | Potency | 2.35 µM (active)
O=C(CCCCCCNC(=O)c1cnc(N(c2ccccc2)c2ccccc2)nc1)NO | Potency | 4.69 µM (active)
CC(=O)SC[C@@H](C)C(=O)N1CCC[C@H]1C(=O)N[C@@H](Cc1ccccc1)C(=O)O | Potency | inactive
O=C(Nc1cc(C(F)(F)F)cc(C(F)(F)F)c1)c1cc(Cl)ccc1O | Potency | 0.209 µM (active)
CCN1CCN(CC(=O)Nc2ccc(-c3cccc4c(=O)cc(N5CCOCC5)oc34)c3sc4ccccc4c23)CC1 | Potency | 0.0118 µM (active)
CCS(=O)(=O)c1cccc(-c2cc(C(=O)NC3CCN(C)CC3)c(C)c3[nH]c4ncc(C)cc4c23)c1 | Potency | 3.32 µM (active)
CC(C)(C)NC(=O)[C@H]1CN(Cc2cccnc2)CCN1C[C@@H](O)C[C@@H](Cc1ccccc1)C(=O)N[C@H]1c2ccccc2C[C@H]1O | Potency | inactive
NC1(Cc2ccc(Cl)cc2)CCN(c2ncnc3[nH]ccc23)CC1 | Potency | 0.935 µM (active)

Task: Record request: Potency value, item COc1cc2ncnc(Nc3ccc(F)c(Cl)c3)c2cc1NC(=O)C=CCN1CCCCC1
Result: 9.35 µM (active)

----------
- Test system: MCC-13
- protocol: qHTS assay to identify novel small-molecules to repurpose for Merkel cell carcinoma treatment (AID 1296009); further: nearly all actives have a fitted effect of over 60% in size
- condition-details: MCC and control cell lines, CellTiter-Glo viability, 72 h; series mostly up to 46 µM
Inconclusive results are not listed. Active and inactive are the calls of the source. The call rests on the fitted dose curve; in most records, active means well fitted inhibition curve with a large enough effect; inconclusive means small, poorly fitted or top-dose-only effect; inactive means flat fitted curve, though single readings scatter.
Just give me one of these, please: active, inactive

Please review the following examples before continuing.
molecular-string | category-label
CCCNC(=O)Nc1ccc(Oc2ncnc3cc(OC)c(OC)cc23)cc1Cl | inactive
CCNC(=O)Nc1ccc2ncc(Nc3ccc(C)cc3)nc2n1 | inactive
C[C@@H](Oc1cc(-c2cnn(C3CCNCC3)c2)cnc1N)c1c(Cl)ccc(F)c1Cl | inactive

Task: Fill in: this test's call for Cc1[nH]nc2ccc(-c3cncc(OC[C@@H](N)Cc4ccccc4)c3)cc12 is ___
Result: active

Task: Which outcome did this test record for the molecule CNC(=O)c1nn(C)c2c1C(C)(C)Cc1cnc(Nc3ccc(N4CCN(C)CC4)cc3)nc1-2 ?
Result: active

----------
- protocol: P-glycoprotein substrates identified in KB-8-5-11 adenocarcinoma cell line, qHTS therapeutic library screen (AID 1346987); further: nearly all actives have a fitted effect of over 65% in size
- condition-details: KB-8-5-11 (P-gp overexpressing) viability, CellTiter-Glo, 72 h; series mostly up to 44.5 µM
Records with an inconclusive call do not appear. Calls of active or inactive are those of the source. Calls come from the whole dose curve; as a rule, active = well fitted inhibition curve with a large enough effect; inconclusive = small, poorly fitted or top-dose-only effect; inactive = flat fitted curve, though single readings scatter.
Lab note: assign the record to one of active, inactive

Task: # fetch the recorded call for NC(=O)c1cccc2cn(-c3ccc([C@@H]4CCCNC4)cc3)nc12 here
Result: inactive

Task: Each compound tested received a call. Report the one for COc1cccc2c(NCc3ccccc3)nc(-n3c(N)nc4ccccc43)nc12 .
Result: inactive

Task: I'd appreciate the recorded outcome for COc1ccc2c(OCc3nnc4ccc(-c5ccccc5)nn34)ccnc2c1 from this test.
Result: inactive

Task: For CN(C1CCc2c(c3ccccc3n2CC(=O)O)C1)S(=O)(=O)c1ccc(F)cc1 (centres undefined) , what call appears in the results of this test?
Result: inactive

Task: Recorded call for CCN(CC)CCNC(=O)c1ccc2nc(-c3ccccc3)c(-c3ccc(CN4CCC(n5c(=O)[nH]c6ccccc65)CC4)cc3)nc2c1 ?
Result: active

Task: Entry CC(C)(C)NC(=O)[C@H]1CN(Cc2cccnc2)CCN1C[C@@H](O)C[C@@H](Cc1ccccc1)C(=O)N[C@H]1c2ccccc2C[C@H]1O : call = ?
Result: active

Task: Outcome? Cn1c2ccccc2c2c3c(c4c5ccccc5n(CCC#N)c4c21)CNC3=O
Result: active

Task: How was O=C1CCC[C@@H]2[C@H]3CCC[N+]4([O-])CCC[C@@H](CN12)[C@@H]34 (some centres undefined) classified in this test?
Result: inactive

Task: Recorded call for COCCOc1ccc2c(c1)ncn2-c1ccc2cccc(N3CCC(N)CC3)c2n1 ?
Result: active
